assay: soluble on expression in E. coli; label from the status in PepcDB or PDB records

>  <query_sequence>
MSRLRVFRQTGWFIAGLMTGLPATAAPAEASSMAGVAVAVATTTPPDATATLQAMQSCRRESAALERLDCYDHLLAPLSPSGFDGALVKAGFVGEAWTRATEQEKRREGNTTELLVTQVPGERPTVVITTPAIGHVPPRPVLMFSCVDNITRMQVALMHPLDVHDIAVTLNADSRALRSHWFVRENGTLLESSRGLSGIDEIKQLFGAKTLTVDTGADNAAGKLTFNIDGLARAIAPLRDACHWAGE

>  <soluble on expression in E. coli>
not soluble

$$$$
>  <query_sequence>
MTNSVLRVLEHLRAHDHDAIVLAPGDADTPHEYAGFPVIPLASLHWPGYQDVRVSTSPQWTMERYLSEFEPDVVHLAGPFMIGYKGAMAAASLGIPIVAIYQTDIPSYAGRYGLGKLEFYGWYRVRQIHSLAVATYAPSTFSRDQLVSHGVPRVDIWGRGVDKVRFHPSKRSQQLHDEWAPNGEVVIGYMGRLAAEKRVADMTNLADIPNTKLVIVGDGPARAEVEKQLPHAVFTGGLGGEDLPRALASMDVFCSTGELETFCQAVQEAKACGLPVISPRKGGPIDLIDSSRTGWLYEPGDMTDFRSRVIDLVGDDYKRHAMGIAARASIENRTWENLCAELVEHYKEAIRLAGRSTRIRAVLLEHHHHHH

>  <soluble on expression in E. coli>
not soluble

$$$$

---

test: soluble on expression in E. coli; label from the status in PepcDB or PDB records

>  <query_sequence>
MTNAALDDKTIVRDYFNSTGFDRWRRIYGDGQVNFVQKDIRVGHQQTVDSVVAWLVADGNLPGLLVCDAGCGVGSLSIPLAQAGALVYGSDISEKMVGEAQQKAQEVLAYGNQPTFMTQDLAQLGGKYDTVICLDVLIHYPTEEASAMISHLASLADRRLILSFAPKTLGLTVLKKIGGLFPGPSKTTRAYQHKEADIRKILGDNGFSIARTGMTSTRFYYSRILEAVRSLEHHHHHH

>  <soluble on expression in E. coli>
not soluble

$$$$
>  <query_sequence>
MAEGLRERKKRQTRQYISDVATGLFLERGFEAVTVAEVADAANVSVNTVYNYFPAKEDLFLDRSKGVIDRLSRWVRGRRDGESAAGAVLRELRDEVESVSPRVGLMDGYATFMKVIQDSPALRSRMWAIGQEVLLNLEHTLREETGSADDDMTPTLMAGQINWLHGTVLAAIGGRMVAGGKPSEVSRDMLLLLDEMEELLSEKVLNYAVRGAL

>  <soluble on expression in E. coli>
not soluble

$$$$

---

assay: soluble on expression in E. coli; label from the status in PepcDB or PDB records
measure_name: soluble on expression in E. coli

Here are 8 sequences together with their reported answers.
>  <query_sequence>
SGAAAAEADRTLFVGNLETKVTEELLFELFHQAGPVIKVKIPKDKDGKPKQFAFVNFKHEVSVPYAMNLLNGIRLYGRPIKIQFRSGSSHAPQDVSLSYPQHHVGNSSPTSTSPSRYERTMDNMTSSAQIIQRSFSSPENFQRQAVMNSALRQMSYGGKFGSSPLDQSGFSPSVQSHSHSFNQSSSSQWRQGTPSSQRKVRMNSYPYLADRHYSREQRYTDHGSDHHYRGKRDDFFYEDRNHDDWSHDYDNRRDSSRDGKWRSSRH

>  <soluble on expression in E. coli>
soluble

$$$$
>  <query_sequence>
MWRLIYSLLFLIPGAAMAGAQVYEPLSASTRTVLHRTISDQAVPMLVTLPGPEAKDWLDSMTKRLEKRISDIEERRAFLITVHYEATRAGLDPELVLSIIQVESNFRKYAVSSAGARGYMQVMPFWVDTIGNPEHNLFHLRVNLRYGCTILRHYLDLEQGDYFRALGRYNGSLGKAGYPNLVFNAWHRHWTYSTASQ

>  <soluble on expression in E. coli>
not soluble

$$$$
>  <query_sequence>
MGSDKIHHHHHHMKAILIDDDQPTLFILNKMLAKIPRVEIVGEFLNAGDAYHFLKHNPVELAFVDIKMPGESGLDFAWRSLAEFPDLYVVFLTAYKDYAVEAFEVQAFDYIVKPIQQERLERTVSRVLQRKAAGISSRNTVEQAKVLFVYCLGGLDLRNTNDDFVMISSSKGQELFAYLLVHRERLTSKWRIMEDVFQGMSPQNAETYLNTTVYKLRKVLEQYGKRSAIVVASESYVMEIKDFYIDFIEFENKVRTLPSITEANLQEAIQTFHLFAGELFGDKDYQWSLAEKERLGDIYCSFAKKLGRYLLENQNSALALQVFKKLVAINELDEESHCFLLQVYAAQNDLPSLIRHYDRYVQLLQRELAISPSNRTAQLFLSLKKSLL

>  <soluble on expression in E. coli>
not soluble

$$$$
>  <query_sequence>
MWLPTPLGPLWLEVSPLGVRRLEPALYPRGPEAEGALALRVREAVQAYFAGERPDFLDLPLDYTGLSPARLRLYERVRLVPYGRTVSYGALGRELGLSPRAVGAALRACPFFLLVPAHRVIHADGRLGGFQGQEGLKLWLLRFEGAL

>  <soluble on expression in E. coli>
soluble

$$$$
>  <query_sequence>
MSLPEYDPDKYRGIDVSYVNICMRRAWLSLHEIFYVRDSYYVSDGAYLADINRKGLPISTGRSRMDNVQIHKDFIMVHEYKRGYKMIKADKMQILHYMYIIKLKENLDIKGKLHFLGSKKVVDIELNDENLNELYKSYENIDKLKDMAKPPEPVRNYFCVHGCSYSDFCWCEGHHHHHH

>  <soluble on expression in E. coli>
soluble

$$$$
>  <query_sequence>
PIELLPETPSQTAGPYVHIGLALEAAGNPTRDQEIWNRLAKPDAPGEHILLLGQVYDGNGHLVRDSFLEVWQADANGEYQDAYNLENAFNSFGRTATTFDAGEWTLHTVKPGVVNNAAGVPMAPHINISLFARGINIHLHTRLYFDDEAQANAKCPVLNLIEQPQRRETLIAKRCEVDGKTAYRFDIRIQGEGETVFFDF

>  <soluble on expression in E. coli>
soluble

$$$$
>  <query_sequence>
SKLPKGTRSSVYFAQHPEKEPLPSRQEVKQTPVIMAKIKGPGPAKYLRPSCTGYIDHDISMFKAPAYTLHSRHSEKRMVCHSSPGPCYLLDPKITRFGMSSCPQVPMEERISNLRLNPTLASCQYYFEKIHPPGERRAPQYTFGYRRPYRVMDLNPAPNQYQMPLLLGPNTPVSRAAPCYSLASRDKNWFYKEDVAGGPGPTTYARPEPSIYQNRSPTYSMAKRFAYPLDLTPRPGPGSHEVQQVTVHKPHIPAFTMGIKHSLHLCPLVIDIRD

>  <soluble on expression in E. coli>
not soluble

$$$$
>  <query_sequence>
MMTKYGVVGTGYFGAELARFMSKVEGAKITAIYDPVNAAPIAKELNCVATATMEALCSHPDVDCVIIASPNYLHKAPVIAAAKAGKHVFCEKPIALNYQDCKDMVDACKEAGVTFMAGHVMNFFHGVRHAKALIKAGEIGEVTQVHTKRNGFEDVQDEISWKKIRAKSGGHLYHHIHELDCTLFIMDETPSLVSMAAGNVAHKGEKFGDEDDVVLITLEFESGRFATLQWGSSFHYPEHYVLIEGTTGAILIDMQNTAGYLIKAGKKTHFLVHESQAEDDDRRNGNISSEMDGAIAYGKPGKRTPMWLSSIMKLEMQYLHDVINGLEPGEEFAKLLTGEAATNAIATADAATLSSNEGRKVKLTEILG

>  <soluble on expression in E. coli>
not soluble

$$$$

// input: 3 sequences below; output: soluble on expression in E. coli for each
1. MGSDKIHHHHHHMQAEKLMQVKDAVLKLRQQLRAGQIYQSLPSRMATLIKQLPSTVTTTVTIPSDEEVLPLIATLHEQLKKGTLTAMSDDQIKLLMAHVGSLNPLVRDQGVYYLLNEALQQQVLTPEQLGDIFDQLIQDQMLFAHIDEPQNDAIYQRSFAILLLSVLLYADHAGLKFMTPARLDLVVEQMTVYILLEKDTRGFVGTTGWAHAYTHIGNILDELADESQLARADKLLLLAALIARYQKLTTPLIFGEPERLSTYLTLITNKHELYCDYLLTAMKDWHQQLMMHTRPASEAEWTQIFNRNRLLEALALHDDLPTAVVDYLDDELEFLG
2. MVTIANDFLTVKISRHGAELTSIKDNLTGRERLWQADPAVWGRHAPVLFPIVGALADNQYHYAGKTYHMGQHGFARDRDFTVLSATPFKASFVLKDDDKTRAMYPFAFRLIITFALENNNLHVTYHVDNPDKSEPLFFSIGGHPGFKVPMTPDTQFSDYYLNFKPRKSLVQIPLVAGEGIDYTHRTLAATDANLALTHETFDHDALIFALLGKTTFNLVSDKTKHGVSVTMTDTPYLGVWSPYPTTGDFVCIEPWWGIADTIGSTGDLTRKLGINRLEPGTAFEKGYMISIFLEHHHHHH
3. MGSDKIHHHHHHMCRWAAYIGPPVHLDEVVCKPEHSLVAQSVHAFECKTQTNADGFGIAWYDSREEPGLYRDTHPAWSDPNLKSITHQVRSGLFLAHVRASTGTATSRNNCHPFTHGCWSFMHNGQVGGFENFRRRADMIIPDELYSARKGATDSEALFLIAIAEGLYEDPKGAMQRAVGRLEALSREFGHTPHMRIGAAFSCGGALYAVRYASDHLAPTVYSSKSADGTGRLVVSEPLHKGECWEAVPAGSFCRFTADDTEIEDFVPQF

1: not soluble; 2: not soluble; 3: not soluble
